meta.source: patent US20250145639A1

Molecular target: HIS-KRAS (G12C, aa 2-185) (Homo sapiens, UniProt P01116, G12C)
Construct: HIS-KRAS (G12C, aa 2-185, Sino biological); purchased Sino biological
Sequence (P01116 2-185 isoform P01116-2 G12C): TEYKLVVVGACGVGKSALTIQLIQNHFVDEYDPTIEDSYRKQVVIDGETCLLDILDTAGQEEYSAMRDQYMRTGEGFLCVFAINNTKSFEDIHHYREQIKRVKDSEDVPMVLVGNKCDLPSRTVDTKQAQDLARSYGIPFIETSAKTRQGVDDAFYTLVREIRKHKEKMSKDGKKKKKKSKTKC
Test: KRas G12C binding assay (TR-FRET, SOS1-mediated BODIPY FL GTP nucleotide exchange)
Conditions: GDP-loaded HIS-KRAS (G12C) 3 nM, 1 hour pre-incubation with compound, 4 hours with SOS1 ExD and BODIPY FL GTP at 25° C
Recorded IC50 values for a group of compounds are listed next.
measured_metric: IC50

# chemical_structure, measured_metric, recorded_result
data = [
    ("C#Cc1c(F)ccc2cc(O)cc(-c3ncc4c(N5C[C@H]6CC[C@@H](C5)N6C(=O)C=C)nc(OCC56CCCN5CCC6)nc4c3F)c12", "IC50", "0.37 nM"),
    ("C#Cc1cccc2cc(O)cc(-c3ncc4c(N5CC6CCC(C5)N6C(=O)C=C)nc(OC[C@@]56CCCN5C[C@H](F)C6)nc4c3F)c12", "IC50", "10.6 nM"),
    ("C#Cc1c(F)ccc2cc(O)cc(-c3ncc4c(NCC5(N(C)C(=O)C=C)CCC5)nc(OCC56CCCN5CCC6)nc4c3F)c12", "IC50", "2.7 nM"),
    ("C#Cc1c(F)ccc2cc(O)cc(-c3ncc4c(N5C[C@H]6CC[C@@H](C5)N6C(=O)C=C)nc(OC[C@]5(C)CCCN5C)nc4c3F)c12", "IC50", "1.5 nM"),
    ("C#Cc1c(F)ccc2cc(O)cc(-c3ncc4c(N5C[C@H]6CC[C@@H](C5)N6C(=O)C=C)nc(N5CC(N(C)C)C5)nc4c3F)c12", "IC50", "3.34 nM"),
    ("C#Cc1c(F)ccc2cc(O)cc(-c3ncc4c(NCC5(N(C)C(=O)C=C)CCCC5)nc(OCC56CCCN5CCC6)nc4c3F)c12", "IC50", "1.6 nM"),
    ("C#Cc1c(F)ccc2cc(O)cc(-c3ncc4c(N5C[C@H]6CC[C@@H](C5)N6C(=O)C=C)nc(OC[C@@]5(C)C[C@@H](F)CN5C)nc4c3F)c12", "IC50", "0.99 nM"),
    ("C#Cc1c(F)ccc2cc(O)cc(-c3ncc4c(N5C[C@H]6CC[C@@H](C5)N6C(=O)C=C)nc(OC[C@@H]5CCCCN5C)nc4c3F)c12", "IC50", "0.41 nM"),
    ("C#Cc1c(F)ccc2cc(O)cc(-c3ncc4c(N5CCCC[C@H](NC(=O)C=C)C5)nc(OCC56CCCN5CCC6)nc4c3F)c12", "IC50", "6.4 nM"),
    ("C#Cc1c(F)ccc2cc(O)cc(-c3ncc4c(N(C)C[C@@H]5CCCN5C(=O)C=C)nc(OC[C@@]56CCCN5C[C@H](F)C6)nc4c3F)c12", "IC50", "0.41 nM"),
]
